Values from ChEMBL document CHEMBL5335796

measurement_protocol: Drug metabolism in human intestine S9 fraction assessed as psilocin formation at 2.5 uM after 120 mins by LC-MS analysis
Type: ADME, subcellular
conditions: s9, 2 h
The threshold is inclusive: Drug metabolism of exactly 0.02 µM counts as 1.0; values below receive 0.0.

{"structure_smiles_string": "COC(=O)c1cccc(C(=O)Oc2cccc3[nH]cc(CCN(C)C)c23)c1", "classification": 1.0}
{"structure_smiles_string": "CN(C)CCc1c[nH]c2cccc(OC(=O)SCc3ccccc3)c12", "classification": 0.0}
{"structure_smiles_string": "CCCC(=O)OCOc1cccc2[nH]cc(CCN(C)C)c12", "classification": 0.0}

Entry CCC(=O)Oc1cccc2c1c(CCN(C)C)cn2[Si](C(C)C)(C(C)C)C(C)C : is its Drug metabolism no less than 0.02 µM?
0.0

Entry CC(C)OC(=O)OCOc1cccc2c1c(CCN(C)C)cn2COC(=O)OC(C)C : is its Drug metabolism no less than 0.02 µM?
0.0

Entry CCCCC(=O)OCOc1cccc2[nH]cc(CCN(C)C)c12 : is its Drug metabolism no less than 0.02 µM?
1.0
